Cited source: patent US9556205B2

Assay method text: log P by HPLC on reversed-phase column (C18), EEC Directive 79/831 Annex V.A8
Assay type: physicochemical
Experimental conditions: 40° C., 0.1% aqueous formic acid and acetonitrile, linear gradient 10% to 90% acetonitrile
The compounds listed here are annotated with their logP.
Measured quantity: logP

Cn1cc(C(=O)N(C[Si](C)(C)c2ccc(Cl)cc2Cl)C2CC2)c(C(F)F)n1 : 4.41
Cn1nc(C(F)F)c(C(=S)N(C[Si](C)(C)Cc2ccccc2)C2CC2)c1F : 4.67
Cn1nc(C(F)F)c(C(=S)NC[Si](C)(C)c2ccccc2Cl)c1F : 4.11
Cn1cc(C(=O)N(C[Si](C)(C)c2cccc(Cl)c2)C2CC2)c(C(F)F)n1 : 3.80

* * *

The compounds listed here are annotated with their Efficacy.
System: Pyrenophora teres
Assay method text: In vivo preventive test on Pyrenophora teres (barley), Example F
Experimental conditions: 500 ppm of active ingredient, evaluated 7-9 days after inoculation
Measured quantity: Efficacy (%)

Cc1cc(C(=O)N(C[Si](C)(C)c2ccccc2)C2CCCCC2)c(C)o1 [Example 12] : 70
Cc1cc(C(=O)N(C[Si](C)(C)c2cc(Cl)cc(Cl)c2)C2CC2)c(C)o1 [Example 50] : 95
CCc1nn(C)c(F)c1C(=O)N(C[Si](C)(C)c1ccc(Cl)cc1Cl)C1CC1 [Example 42] : 100
CCc1nn(C)c(F)c1C(=S)N(C[Si](C)(C)c1ccccc1)C1CC1 [Example 9] : 100
Cn1nc(C(F)F)c(C(=O)N(C[Si](C)(C)Cc2ccccc2)C2CC2)c1Cl [Example 54] : 100
Cn1nc(C(F)F)c(C(=O)N(C[Si](C)(C)c2ccccc2)C2CCCCC2)c1F [Example 11] : 70
Cn1nc(C(F)F)c(C(=S)N(C[Si](C)(C)Cc2ccccc2Cl)C2CC2)c1F [Example 62] : 100
Cn1nc(C(F)F)c(C(=O)N(C[Si](C)(C)c2ccccc2Cl)C2CC2)c1F [Example 18] : 100
Cc1nc(C(F)F)c(C(=O)N(C[Si](C)(C)c2ccccc2Cl)C2CC2)s1 [Example 21] : 100
Cn1nc(C(F)F)c(C(=O)N(C[Si](C)(C)Cc2ccc(Cl)cc2Cl)C2CC2)c1Cl [Example 69] : 100
Cc1cc(C(=O)N(C[Si](C)(C)c2cccc(Cl)c2)C2CC2)c(C)o1 [Example 29] : 95
